# METHOD_SUMMARY: yeast display, Sf9 membrane polyspecificity reagent, FACS + sequencing; frameworks hold sequencing errors
MEASURE: polyreactivity (PSR sort gate)

Please review the entries below; each comes with its answer.
POLYMER_SEQUENCE	ASSAY_RESULT
QVQLVESGGGLVQAGGSLRLSCAASGSTFTHYAMGWYRQAPGKERELVAAITSSGGSTYYADSVKGRFTISRDNAKNTVYLQMNSLKPEDTAVYYCAARGSYRNRYRHDYWGQGTQVTVSS	high polyreactivity
QVQLVESGGGLVQAGGSLRLSCAASGFTFVYNAMGWYRQAPGKERELVAAINSGGRTNYADSVKGRFTISRDNAKNTVYLQMNSLKPEDTAVYYCAAEVTSFSFGGDATEYYWGQGTQVTVSS	low polyreactivity
QVQLVESGGGLVQAGGSLRLSCAASGRIFFNSAMGWYRQAPGKERELVAAIRGGGSTYADSVKGRFTISRDNAKNTVYLQMNSLKPEDTAVYYCAARYSGSPYHTRRYYYWGQGTQVTVSS	high polyreactivity
QVQLVESGGGLVHAGGSLRLSCAASGRIFGPYAMGWYRQAPGKERELVAAISRSGSTTYYAVSVKGRFTISRDNAKNTVYLQMNSLKPDDTAVYYCNGRRYRVVQSKPCDYWGQGTQVTVSS	high polyreactivity

Looking up QVQLVESGGGLVQAGGSLRLSCAASGSTFVWYAKGWYIQAPGKERELVAAINFGGTTYYADSVKGRFTISRDNAKNTVYLQMNSLKPEETAVYYCATEYDYGSWFPDGWGIFDYWGQGTQVTVSS , I see its polyreactivity (PSR sort gate) listed as low polyreactivity

These measurements were taken from the nanobody polyreactivity screen of Harvey et al. (2022).
